Origin of measurements: patent US10160785B2

For each entry below, report its Metabolic activity of C. albicans (%) value.
- Test system: Candida albicans (Olomouc) biofilm
- TEST DETAILS: C. albicans biofilm, remaining metabolic activity (XTT)
- Assay type: cell-based
- STUDY CONDITIONS: peptide concentration 25 μmol · l^−1, 20 hours
Where a SMILES comes first, the peptide text is derived from it.
Note: unit % is implicit; provide only the numeric part.

[Q] Supply recorded Metabolic activity of C. albicans (%) for OC(Cn1cncn1)(Cn1cncn1)c1ccc(F)cc1F [Fluconazole, reference compound] here.
[A] 31.7

[Q] Supply recorded Metabolic activity of C. albicans (%) for CCCC[C@H](NC(=O)[C@H](CC(C)C)NC(=O)[C@H](CO)NC(=O)[C@H](CO)NC(=O)[C@H](CCCC)NC(=O)[C@@H](NC(=O)CN)[C@@H](C)CC)C(=O)N[C@@H](CCCCN)C(=O)N[C@@H](CCCCN)C(=O)N[C@@H](CC(C)C)C(=O)N[C@@H](CCCCN)C(=O)N[C@@H](CCCCN)C(=O)N[C@H](C(=O)N[C@H](C(=O)N[C@@H](C)C(=O)N[C@@H](CCCCN)C(N)=O)[C@@H](C)CC)[C@@H](C)CC [V] (HELM PEPTIDE1{G.I.[Nle].S.S.L.[Nle].K.K.L.K.K.I.I.A.K.[am]}$$$$V2.0) here.
[A] 45.0

[Q] Supply recorded Metabolic activity of C. albicans (%) for CC[C@@H](C)[C@@H](NC(=O)CN)C(=O)N[C@H](CCSC)C(=O)N[C@H](CO)C(=O)N[C@H](CO)C(=O)N[C@H](CC(C)C)C(=O)N[C@H](CCSC)C(=O)N[C@H](CCCCN)C(=O)N[C@H](CCCCN)C(=O)N[C@H](CC(C)C)C(=O)N[C@H](CCCCN)C(=O)N[C@H](CCCCN)C(=O)N[C@@H](C(=O)N[C@@H](C(=O)N[C@H](C)C(=O)N[C@H](CCCCN)C(N)=O)[C@H](C)CC)[C@H](C)CC [II] (HELM PEPTIDE1{G.[dI].[dM].[dS].[dS].[dL].[dM].[dK].[dK].[dL].[dK].[dK].[dI].[dI].[dA].[dK].[am]}$$$$V2.0) here.
[A] 35.2

[Q] Supply recorded Metabolic activity of C. albicans (%) for Clc1ccccc1C(c1ccccc1)(c1ccccc1)n1ccnc1 [Clotrimazole, reference compound] here.
[A] 34.2

###

For each entry below, report its Antimicrobial activity MIC S. a. Motol value.
- Test system: Staphylococcus aureus Motol
- STUDY CONDITIONS: Staphylococcus aureus Motol clinical isolate; 37° C., 20 h
Answer format: number, then unit.

[Q] Supply recorded Antimicrobial activity MIC S. a. Motol for H-KILSSLLKKLKKIIAK-NH2 [VI] here.
[A] 10.0 µM

[Q] Supply recorded Antimicrobial activity MIC S. a. Motol for H-GILKSLLKKLKKIIAK-NH2 [X] here.
[A] 10.0 µM

[Q] Supply recorded Antimicrobial activity MIC S. a. Motol for H-GILSKLLKKLKKIIAK-NH2 [XI] here.
[A] 10.0 µM

[Q] Supply recorded Antimicrobial activity MIC S. a. Motol for H-GILSSLLKKLKKWIAK-NH2 [XVIII] here.
[A] 4.0 µM

[Q] Supply recorded Antimicrobial activity MIC S. a. Motol for H-Gly-Ile-Leu-Ser-Ser-Leu-Trp-Lys-Lys-Leu-Lys-Lys-Ile-Ile-Ala-Lys-NH2 (H-GILSSLWKKLKKIIAK-NH2; also: D-amino acids (positions not given here)) [XIX] here.
[A] 3.2 µM

[Q] Supply recorded Antimicrobial activity MIC S. a. Motol for H-GILSSWLKKLKKIIAK-NH2 [XV] here.
[A] 16.2 µM

[Q] Supply recorded Antimicrobial activity MIC S. a. Motol for H-GILSSLWKKLKKWIAK-NH2 [XVII] here.
[A] 2.0 µM

[Q] Supply recorded Antimicrobial activity MIC S. a. Motol for H-GIMSSLMKKLAAHIKK-NH2 [VIII] here.
[A] 90.0 µM

[Q] Supply recorded Antimicrobial activity MIC S. a. Motol for H-GILSSLLKKWKKIIAK-NH2 [XVI] here.
[A] 20.3 µM

[Q] Supply recorded Antimicrobial activity MIC S. a. Motol for H-GIMSSLMKKLKKIIKK-NH2 [VII] here.
[A] 64.7 µM

[Q] Supply recorded Antimicrobial activity MIC S. a. Motol for H-GIWSSLLKKLKKIIAK-NH2 [XIV] here.
[A] 5.3 µM

###

- Tested on: S. aureus (Liberec) biofilm
- TEST DETAILS: Bacterial biofilm, remaining metabolic activity (MTT)
- Type: cell-based, Staphylococcus aureus
- STUDY CONDITIONS: remaining metabolic activity of biofilm; peptide concentration 32 μmol · l^−1; 20 h
MEASURE NAME: Metabolic activity (%) S. aureus (Liberec)
Note: unit % is implicit; provide only the numeric part.

[Q] Supply recorded Metabolic activity (%) S. aureus (Liberec) for NCC[C@H](O)C(=O)N[C@@H]1C[C@H](N)[C@@H](O[C@H]2O[C@H](CN)[C@@H](O)[C@H](O)[C@H]2O)[C@H](O)[C@H]1O[C@H]1O[C@H](CO)[C@@H](O)[C@H](N)[C@H]1O [Amikacin, reference compound] here.
[A] 108.7

###

- System: Candida tropicalis ATCC 750
- TEST DETAILS: microbe, parasite or virus in culture
- Type: cell-based
- STUDY CONDITIONS: RPMI broth microdilution, 35° C., 48 hours, visual
MEASURE NAME: Antifungal activity MIC C. tropicalis ATCC 750 (µM)
Note: unit µM is implicit; provide only the numeric part.

[Q] Supply recorded Antifungal activity MIC C. tropicalis ATCC 750 for H-GIMSSLMKKLKKIIKK-NH2 [VII] here.
[A] 1.1

[Q] Supply recorded Antifungal activity MIC C. tropicalis ATCC 750 for H-GILKSLLKKLKKIIAK-NH2 [X] here.
[A] 1.0

[Q] Supply recorded Antifungal activity MIC C. tropicalis ATCC 750 for H-GIMSSLMKKLAAHIKK-NH2 [VIII] here.
[A] 1.1

###

- Tested on: S. aureus (Liberec) biofilm
- TEST DETAILS: Bacterial biofilm, remaining metabolic activity (MTT)
- Format: cell-based, Staphylococcus aureus
- STUDY CONDITIONS: remaining metabolic activity of biofilm; peptide concentration 16 μmol · l^−1; 20 h
For each entry below, report its Metabolic activity (%) S. aureus (Liberec) value.
Note: unit % is implicit; provide only the numeric part.

[Q] Supply recorded Metabolic activity (%) S. aureus (Liberec) for H-GIMSSLMKKLAAIIKK-NH2 [IX] here.
[A] 53.6

[Q] Supply recorded Metabolic activity (%) S. aureus (Liberec) for H-GILSSLLKKLKKIIAK-NH2 [III] here.
[A] 89.6

[Q] Supply recorded Metabolic activity (%) S. aureus (Liberec) for H-Gly-Ile-Leu-Ser-Ser-Leu-Trp-Lys-Lys-Leu-Lys-Lys-Ile-Ile-Ala-Lys-NH2 (H-GILSSLWKKLKKIIAK-NH2; also: D-amino acids (positions not given here)) [XIX] here.
[A] 2.8

[Q] Supply recorded Metabolic activity (%) S. aureus (Liberec) for H-GILSSLWKKLKKIIAK-NH2 [XII] here.
[A] 31.5

[Q] Supply recorded Metabolic activity (%) S. aureus (Liberec) for H-GIMSSLMKKLKKIIAK-NH2 [I] here.
[A] 103.3

###

- Tested on: S. aureus (Liberec) biofilm
- TEST DETAILS: Bacterial biofilm, remaining metabolic activity (MTT)
- Type: cell-based, Staphylococcus aureus
- STUDY CONDITIONS: remaining metabolic activity of biofilm; peptide concentration 16 μmol · l^−1; 20 h
Where a SMILES comes first, the peptide text is derived from it.
MEASURE NAME: Metabolic activity (%) S. aureus (Liberec)
Note: unit % is implicit; provide only the numeric part.

[Q] Look up S. aureus (Liberec) biofilm data: Metabolic activity (%) S. aureus (Liberec) of CCCC[C@H](NC(=O)[C@H](CC(C)C)NC(=O)[C@H](CO)NC(=O)[C@H](CO)NC(=O)[C@H](CCCC)NC(=O)[C@@H](NC(=O)CN)[C@@H](C)CC)C(=O)N[C@@H](CCCCN)C(=O)N[C@@H](CCCCN)C(=O)N[C@@H](CC(C)C)C(=O)N[C@@H](CCCCN)C(=O)N[C@@H](CCCCN)C(=O)N[C@H](C(=O)N[C@H](C(=O)N[C@@H](C)C(=O)N[C@@H](CCCCN)C(N)=O)[C@@H](C)CC)[C@@H](C)CC [V] (HELM PEPTIDE1{G.I.[Nle].S.S.L.[Nle].K.K.L.K.K.I.I.A.K.[am]}$$$$V2.0) , then report it.
[A] 71.0

[Q] Look up S. aureus (Liberec) biofilm data: Metabolic activity (%) S. aureus (Liberec) of NCC[C@H](O)C(=O)N[C@@H]1C[C@H](N)[C@@H](O[C@H]2O[C@H](CN)[C@@H](O)[C@H](O)[C@H]2O)[C@H](O)[C@H]1O[C@H]1O[C@H](CO)[C@@H](O)[C@H](N)[C@H]1O [Amikacin, reference compound] , then report it.
[A] 102.4

[Q] Look up S. aureus (Liberec) biofilm data: Metabolic activity (%) S. aureus (Liberec) of CN[C@H](CC(C)C)C(=O)N[C@H]1C(=O)N[C@@H](CC(N)=O)C(=O)N[C@H]2C(=O)N[C@H]3C(=O)N[C@H](C(=O)N[C@H](C(=O)O)c4cc(O)cc(O)c4-c4cc3ccc4O)[C@H](O)c3ccc(c(Cl)c3)Oc3cc2cc(c3O[C@@H]2O[C@H](CO)[C@@H](O)[C@H](O)[C@H]2O[C@H]2C[C@](C)(N)[C@H](O)[C@H](C)O2)Oc2ccc(cc2Cl)[C@H]1O [Vancomycin, reference compound] , then report it.
[A] 15.9

[Q] Look up S. aureus (Liberec) biofilm data: Metabolic activity (%) S. aureus (Liberec) of CC[C@@H](C)[C@@H](NC(=O)CN)C(=O)N[C@H](CCSC)C(=O)N[C@H](CO)C(=O)N[C@H](CO)C(=O)N[C@H](CC(C)C)C(=O)N[C@H](CCSC)C(=O)N[C@H](CCCCN)C(=O)N[C@H](CCCCN)C(=O)N[C@H](CC(C)C)C(=O)N[C@H](CCCCN)C(=O)N[C@H](CCCCN)C(=O)N[C@@H](C(=O)N[C@@H](C(=O)N[C@H](C)C(=O)N[C@H](CCCCN)C(N)=O)[C@H](C)CC)[C@H](C)CC [II] (HELM PEPTIDE1{G.[dI].[dM].[dS].[dS].[dL].[dM].[dK].[dK].[dL].[dK].[dK].[dI].[dI].[dA].[dK].[am]}$$$$V2.0) , then report it.
[A] 138.8
